All values here come from paper PMC4336329.

Target: human ether-à-go-go-related gene (hERG) potassium channel (human, UniProt Q12809)
Sequence (Q12809 whole entry, looked up): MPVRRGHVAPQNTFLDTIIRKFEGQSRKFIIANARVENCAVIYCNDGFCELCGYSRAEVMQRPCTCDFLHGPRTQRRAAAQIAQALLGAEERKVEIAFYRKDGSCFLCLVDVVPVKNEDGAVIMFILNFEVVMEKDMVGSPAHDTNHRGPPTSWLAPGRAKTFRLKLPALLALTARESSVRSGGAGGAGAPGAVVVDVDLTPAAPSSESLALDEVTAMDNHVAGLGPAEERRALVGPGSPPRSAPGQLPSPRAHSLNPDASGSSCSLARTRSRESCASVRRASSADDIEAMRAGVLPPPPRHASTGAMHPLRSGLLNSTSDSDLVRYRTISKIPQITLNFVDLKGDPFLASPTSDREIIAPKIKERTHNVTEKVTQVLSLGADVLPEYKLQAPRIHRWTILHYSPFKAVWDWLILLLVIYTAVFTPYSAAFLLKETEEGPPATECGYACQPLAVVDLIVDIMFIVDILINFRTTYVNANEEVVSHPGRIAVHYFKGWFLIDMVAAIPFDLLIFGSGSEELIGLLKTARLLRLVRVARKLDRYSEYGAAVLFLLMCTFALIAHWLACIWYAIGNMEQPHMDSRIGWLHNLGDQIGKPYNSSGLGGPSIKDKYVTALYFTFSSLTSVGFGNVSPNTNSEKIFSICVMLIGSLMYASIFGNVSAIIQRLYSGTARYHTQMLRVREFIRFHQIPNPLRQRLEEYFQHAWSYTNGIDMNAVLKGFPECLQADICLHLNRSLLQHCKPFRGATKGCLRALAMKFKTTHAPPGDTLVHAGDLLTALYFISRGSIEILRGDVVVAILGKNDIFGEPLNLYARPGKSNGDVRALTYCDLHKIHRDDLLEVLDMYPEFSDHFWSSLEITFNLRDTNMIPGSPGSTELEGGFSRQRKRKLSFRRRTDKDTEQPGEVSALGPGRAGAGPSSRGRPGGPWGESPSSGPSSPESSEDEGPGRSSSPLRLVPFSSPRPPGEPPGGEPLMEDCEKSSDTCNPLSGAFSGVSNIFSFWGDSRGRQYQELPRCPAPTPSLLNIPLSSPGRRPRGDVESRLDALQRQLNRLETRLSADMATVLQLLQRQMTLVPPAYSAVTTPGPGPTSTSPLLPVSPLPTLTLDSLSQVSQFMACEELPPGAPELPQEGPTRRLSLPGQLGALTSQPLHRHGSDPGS
Experiment: primary screen, population patch clamp on CHO cells stably expressing hERG; higher = less effect of the substance
Method: Briefly, Chinese hamster ovary (CHO) cells stably expressing the hERG channel were dislodged from tissue culture flasks and dispensed into PPC plates. […] During the recording, background leak currents were estimated by a 100 ms step to -80 mV from an initial holding potential of -70 mV and subtracted from the subsequent current measurement. The campaign was conducted in two phases using slight differences in recording protocol. […]
About 14,000 (4.5%) of roughly 310,000 compounds showed an effect of 50% or more. Effects have a minus sign here. For the sample, strong results were picked, then their nearest neighbours and some compounds at random.
measured parameter: hERG current change (%, negative = inhibition) at 10uM (%)
Answer format: numeric, % implied, no suffix.

{"columns": ["compound", "tested target", "recorded measurement"],
 "data": [
  ["Cc1noc(C)c1C(=O)Nc1nc(-c2ccccc2Cl)cs1", "human ether-à-go-go-related gene (hERG) potassium channel (human, UniProt Q12809)", -0.869],
  ["CCc1noc(C)c1C(=O)Nc1nc(-c2ccccc2)cs1", "human ether-à-go-go-related gene (hERG) potassium channel (human, UniProt Q12809)", -32.6]
]}

Ask | Need hERG current change (%, negative = inhibition) at 10uM of CN(C)c1ccc(NC(=O)CSc2nnc(-c3cccs3)n2Cc2ccco2)cc1 , thanks.
Reply | -39.4

Ask | Another compound to check: CN1CCN(c2nc3ccccn3c(=O)c2/C=C(\C#N)S(=O)(=O)c2ccc(Cl)cc2)CC1
Reply | -51.9

Ask | Another compound to check: COc1ccc(NC(=O)CSc2nnc(-c3ccccc3)n2Cc2ccco2)cc1OC
Reply | -34.6

Ask | Another compound to check: CC1CCN(CCCNC(=O)CCCNC(=O)Cn2cnc3sc4c(c3c2=O)CCCC4)CC1
Reply | 12.3

Ask | Another compound to check: Cc1ccccc1N1CC(O)(c2cccs2)[N+]2=C1CCCC2.[Br-] (stereo not shown)
Reply | -25.9

###

Biological target: human ether-à-go-go-related gene (hERG) potassium channel (human, UniProt Q12809)
Assay: primary screen, population patch clamp on CHO cells stably expressing hERG; higher = less effect of the substance
Method: Briefly, Chinese hamster ovary (CHO) cells stably expressing the hERG channel were dislodged from tissue culture flasks and dispensed into PPC plates. […] During the recording, background leak currents were estimated by a 100 ms step to -80 mV from an initial holding potential of -70 mV and subtracted from the subsequent current measurement. The campaign was conducted in two phases using slight differences in recording protocol. […]
Screen size: about 310,000 compounds; about 14,000 (4.5%) showed an effect of 50% or more. Effects have a minus sign here. For the sample, strong results were picked, then their nearest neighbours and some compounds at random.
Listed below: hERG current change (%, negative = inhibition) at 10uM values for each entry.
Answer format: numeric, % implied, no suffix.

Before answering, review these 4 worked examples.
{"columns": ["smiles code", "recorded measurement"],
 "data": [
  ["c1ccc(CSCc2cn3ccsc3n2)cc1", -4.45],
  ["O=c1cc(-c2ccccc2)c2ccc(O)c(CN3CCCCC3)c2o1", -8.89],
  ["CSCc1nnc(NC(=O)c2ccc(S(=O)(=O)N(C)C)cc2)o1", 20.7],
  ["COc1ccc(NC(=O)Cn2nnc(C(=O)Nc3ccc(F)c(Cl)c3)c2N)cc1", 25.9]
]}

Ask | Need hERG current change (%, negative = inhibition) at 10uM of Cc1ccc(C(=O)N2CCN(c3ccc(NC(=O)c4cccnc4Cl)cc3)CC2)cc1 , thanks.
Reply | -27.8

###

Listed below: hERG current change (%, negative = inhibition) at 10uM values for each entry.
biological target: human ether-à-go-go-related gene (hERG) potassium channel (human, UniProt Q12809); experiment: primary screen, population patch clamp on CHO cells stably expressing hERG; higher = less effect of the substance;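 also: peak tail current of the secondary pulse compared with the same well before compound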
Hit rate of the full screen: of about 310,000 compounds, about 14,000 (4.5%) showed an effect of 50% or more. The effect is printed as a negative number. The list comes from a sample in which strong results are over-represented; it also holds close analogues and randomly drawn compounds.
Answer format: numeric, % implied, no suffix.

{"columns": ["smiles code", "units text", "recorded measurement"],
 "data": [
  ["C/C(=N/Nc1ccccc1[N+](=O)[O-])c1ccc([N+](=O)[O-])cc1", "%", 5.07]
]}

Ask | Need hERG current change (%, negative = inhibition) at 10uM of N/C(=N\OC(=O)Cc1ccc([N+](=O)[O-])cc1)c1cccc(Br)c1 , thanks.
Reply | 3.08

Ask | Another compound to check: N/C(Cc1ccc([N+](=O)[O-])cc1)=N\OC(=O)c1cccc(Br)c1
Reply | -58

Ask | Another compound to check: Cc1noc(/C=C/c2nn(C)cc2Cl)c1[N+](=O)[O-]
Reply | 16.6

Ask | Another compound to check: COc1cc(C(=O)OCc2ccc([N+](=O)[O-])cc2)cc(OC)c1OC
Reply | 2.74

###

Listed below: hERG current change (%, negative = inhibition) at 10uM values for each entry.
target: human ether-à-go-go-related gene (hERG) potassium channel (human, UniProt Q12809); assay: primary screen, population patch clamp on CHO cells stably expressing hERG; higher = less effect of the substance;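 also: peak tail current of the secondary pulse compared with the same well before compound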
The campaign covered roughly 310,000 compounds. About 14,000 (4.5%) showed an effect of 50% or more. Effects have a minus sign here. Only a selection was taken, and strong results are over-represented in it overall.
Answer format: numeric, % implied, no suffix.

{"columns": ["molecule", "tested target", "recorded measurement"],
 "data": [
  ["COc1ccc(N2CCC(CNC(=O)Nc3ccc(C)c(C)c3)C2)cc1 (stereo not drawn)", "human ether-à-go-go-related gene (hERG) potassium channel (human, UniProt Q12809)", 11.4]
]}

Ask | Need hERG current change (%, negative = inhibition) at 10uM of COc1ccc(CNC(=S)NCc2ccc(OC(C)C)cc2)cc1 , thanks.
Reply | -3.86

Ask | Another molecule to check: CC(=O)c1ccccc1NS(=O)(=O)c1cccc2nonc12
Reply | -52.2

Ask | Another molecule to check: CCCOc1ccc(N2C(=O)CC(N3CCN(c4ccc([N+](=O)[O-])cc4)CC3)C2=O)cc1 (stereo not drawn)
Reply | -73.8

Ask | Another molecule to check: O=S(=O)(Nc1cc(F)ccc1F)c1cccc2nonc12
Reply | -83.6

###

target: human ether-à-go-go-related gene (hERG) potassium channel (human); assay: primary screen, population patch clamp on CHO cells stably expressing hERG; higher = less effect of the substance;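 also: peak tail current of the secondary pulse compared with the same well before compound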
The whole screen tested about 310,000 compounds, of which about 14,000 (4.5%) showed an effect of 50% or more. Effects have a minus sign here. For the sample, strong results were picked, then their nearest neighbours and some compounds at random.
measured parameter: hERG current change (%, negative = inhibition) at 10uM (%)
Answer format: numeric, % implied, no suffix.

Before answering, review these 3 worked examples.
{"columns": ["compound", "recorded measurement"],
 "data": [
  ["COc1ccc(CCNC(=O)C2CC3Cn4c(nc5ccccc54)C3N2Cc2ccccc2)cc1 (stereo not shown)", -49.7],
  ["O=C(NCc1ccc(OC(F)(F)F)cc1)C1CC2Cn3c(nc4ccccc43)C2N1c1ccccc1 (stereo not shown)", -61.3],
  ["CN1C(C(=O)NCc2ccc(OC(F)(F)F)cc2)CC2Cn3c(nc4cc(Cl)c(Cl)cc43)C21 (stereo not shown)", -77.9]
]}

Attention now turns to another entry.
Ask | Need hERG current change (%, negative = inhibition) at 10uM of O=C(Cn1nc(C(=O)O)c2ccccc2c1=O)Nc1ccc(F)cc1 , thanks.
Reply | 8.44

###

Target: human ether-à-go-go-related gene (hERG) potassium channel (human);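 also: peak tail current of the secondary pulse compared with the same well before compound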
Experiment: primary screen, population patch clamp on CHO cells stably expressing hERG; higher = less effect of the substance
Procedure: Briefly, Chinese hamster ovary (CHO) cells stably expressing the hERG channel were dislodged from tissue culture flasks and dispensed into PPC plates. […] During the recording, background leak currents were estimated by a 100 ms step to -80 mV from an initial holding potential of -70 mV and subtracted from the subsequent current measurement. The campaign was conducted in two phases using slight differences in recording protocol. […]
The whole screen tested about 310,000 compounds, of which about 14,000 (4.5%) showed an effect of 50% or more. The effect is printed as a negative number. The sample as a whole holds a higher share of strong results than the screen did.
Please use yes (1) whenever hERG current change (%, negative = inhibition) at 10uM is not below -30%, and no (0) whenever it is.

{"columns": ["molecule", "tested target", "class"],
 "data": [
  ["COc1ccc(C(=O)c2coc3ccc(O)c(CN4CCCCC4)c23)cc1", "human ether-à-go-go-related gene (hERG) potassium channel (human)", "no (0)"],
  ["CN=C1c2cc3c(Br)c(OC)ccc3n2CCN1C.Cl", "human ether-à-go-go-related gene (hERG) potassium channel (human)", "no (0)"],
  ["Cc1ccc(/C=C2\\Oc3c(ccc(O)c3CN3CCN(C)CC3)C2=O)cc1", "human ether-à-go-go-related gene (hERG) potassium channel (human)", "yes (1)"],
  ["COc1ccc2c(c1)cc1n2CCN=C1NN.Cl.O", "human ether-à-go-go-related gene (hERG) potassium channel (human)", "yes (1)"],
  ["COc1ccc(C(=O)c2coc3ccc(O)c(CN4CCOCC4)c23)cc1", "human ether-à-go-go-related gene (hERG) potassium channel (human)", "no (0)"],
  ["Cc1ccc(C(=O)c2coc3ccc(O)c(CN4CCN(C)CC4)c23)cc1", "human ether-à-go-go-related gene (hERG) potassium channel (human)", "no (0)"]
]}

Ask | Test whether the molecule COc1ccc2nc(N3CCCC3)[nH]c2c1.Cl records hERG current change (%, negative = inhibition) at 10uM of -30% or higher.
Reply | yes (1)

Ask | Another molecule to check: O=c1c(-c2ccc(Cl)cc2)coc2c(CN3CCCCC3)c(O)ccc12
Reply | no (0)

Ask | Another molecule to check: CC(=O)Oc1ccc(/C=N/NC(=O)C2CCCN2S(=O)(=O)c2ccc(Cl)cc2)cc1 (stereo not shown)
Reply | yes (1)

Ask | Another molecule to check: COc1ccc(C(=S)N2CCN(C)CC2)cc1Br
Reply | yes (1)
